meta.source: patent US20240376097A1

- Measured On: recombinant human Bcl-2 D103Y protein (Homo sapiens (Human), UniProt P10415, D103Y)
- Sequence (P10415 whole entry D103Y): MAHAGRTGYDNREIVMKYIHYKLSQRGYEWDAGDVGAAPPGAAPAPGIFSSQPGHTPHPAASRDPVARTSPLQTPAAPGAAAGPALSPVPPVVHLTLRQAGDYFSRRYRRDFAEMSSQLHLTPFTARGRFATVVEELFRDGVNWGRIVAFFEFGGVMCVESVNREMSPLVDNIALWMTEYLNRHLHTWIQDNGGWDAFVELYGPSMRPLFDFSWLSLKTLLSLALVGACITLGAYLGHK
- Method Description: Bcl-2-D103Y Biochemical Assay (TR-FRET)
- Assay type: binding
- Experimental Conditions: ratio of IC50
Parameter Ratio of Bcl-2 D103Y/Bcl-2 WT: see the listing below.

Compound	Value Measured
COc1cc(CN2CCN(C3CC4(C3)CN(c3ccc(C(=O)NS(=O)(=O)c5ccc(NC[C@H]6CC[C@](C)(O)CC6)c([N+](=O)[O-])c5)c(Oc5cnc6[nH]cc(F)c6c5)c3)C4)[C@H](c3ccccc3C(C)C)C2)ccc1OC(C)C	0.9
COc1cc(CN2CCN(C3CC4(CCN(c5ccc(C(=O)NS(=O)(=O)c6ccc(NC[C@H]7CC[C@](C)(O)CC7)c([N+](=O)[O-])c6)c(Oc6cnc7[nH]ccc7c6)c5)CC4)C3)[C@H](c3ccccc3C(C)C)C2)ccc1C(F)F	0.84
CC(C)c1ccccc1[C@@H]1CN(Cc2ccc(Cl)cc2)CCN1C1CC2(CCN(c3ccc(C(=O)NS(=O)(=O)c4ccc(NC[C@H]5CC[C@](C)(O)CC5)c([N+](=O)[O-])c4)c(Oc4cnc5[nH]ccc5c4)c3)CC2)C1 (single isomer, unassigned) [Example 29a]	1.9

Query compound follows.
Would you kindly share the measured Ratio of Bcl-2 D103Y/Bcl-2 WT for COc1ccccc1CN1CCN(C2CC3(CCN(c4ccc(C(=O)NS(=O)(=O)c5ccc(NC[C@H]6CC[C@](C)(O)CC6)c([N+](=O)[O-])c5)c(Oc5cnc6[nH]ccc6c5)c4)CC3)C2)C(c2ccccc2C(C)C)C1 (stereo partly shown) ? 3.3

---

In this section we review reported Ratio of Bcl-2 D103Y/Bcl-2 WT values for a set of molecules.
- Measured On: recombinant human Bcl-2 D103Y protein (Homo sapiens (Human), UniProt P10415, D103Y)
- Method Description: Bcl-2-D103Y Biochemical Assay (TR-FRET)
- Assay type: binding
- Experimental Conditions: ratio of IC50
Would you mind answering with just the numeric figure?

Molecule	Ratio of Bcl-2 D103Y/Bcl-2 WT
[2H]C([2H])([2H])Oc1cc(CN2CCN(C3CC4(C3)CN(c3ccc(C(=O)NS(=O)(=O)c5ccc(NC[C@H]6CC[C@](C)(O)CC6)c([N+](=O)[O-])c5)c(Oc5cnc6[nH]cc(F)c6c5)c3)C4)[C@H](c3ccccc3C(C)C)C2)cc2ccoc12 [Example 322]	1.4

Pending molecule:
Can you share its Ratio of Bcl-2 D103Y/Bcl-2 WT? I mean this molecule: CC(C)c1ccccc1C1CN(Cc2ccc(Cl)cc2)CCN1C1CC2(CCN(c3ccc(C(=O)NS(=O)(=O)c4ccc(NC[C@H]5CC[C@](C)(O)CC5)c([N+](=O)[O-])c4)c(Oc4cnc5[nH]ccc5c4)c3)CC2)C1 (some centres unmarked) [Example 29] 1.9

---

- Measured On: Recombinant human Bcl-2 protein (Homo sapiens (Human))
- Sequence (P10415 whole entry): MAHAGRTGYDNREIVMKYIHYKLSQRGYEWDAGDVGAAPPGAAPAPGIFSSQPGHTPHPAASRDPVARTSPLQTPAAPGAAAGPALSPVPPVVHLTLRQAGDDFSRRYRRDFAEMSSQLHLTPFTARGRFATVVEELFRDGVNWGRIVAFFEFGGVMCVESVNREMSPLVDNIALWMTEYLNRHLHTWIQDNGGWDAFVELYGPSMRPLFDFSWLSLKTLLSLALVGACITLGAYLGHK
- Method Description: Bcl-2 TR-FRET Assay
- Type: binding
- Experimental Conditions: wild type Bcl-2; unit inferred; read-out: Bcl-2 WT
Measured Quantity: IC50

Reference set, count: 3
Compound	Measured Quantity	Value Measured
COc1cc(CN2CCN(C3CC4(CCN(c5ccc(C(=O)NS(=O)(=O)c6ccc(NC[C@H]7CC[C@](C)(O)CC7)c([N+](=O)[O-])c6)c(Oc6cnc7[nH]ccc7c6)c5)CC4)C3)C(c3ccccc3C(C)C)C2)cc(OC)c1OC (stereo partly shown) [Example 75]	IC50	0.059 nM
COc1cc(CN2CCN(C3CC4(CCN(c5ccc(C(=O)NS(=O)(=O)c6ccc(NC[C@H]7CC[C@](C)(O)CC7)c([N+](=O)[O-])c6)c(Oc6cnc7[nH]cc(F)c7c6)c5)CC4)C3)[C@H](c3ccccc3C(C)C)C2)ccc1C [Example 273]	IC50	0.7 nM
CCOc1cc(CN2CCN(C3CC4(CCN(c5ccc(C(=O)NS(=O)(=O)c6ccc(NC[C@H]7CC[C@](C)(O)CC7)c([N+](=O)[O-])c6)c(Oc6cnc7[nH]ccc7c6)c5)CC4)C3)C(c3ccccc3C(C)C)C2)ccc1OC (stereo partly shown) [Example 124]	IC50	0.15 nM

Next item in the queue.
Name the recorded IC50 for COc1nn(C)cc1CN1CCN(C2CC3(CCN(c4ccc(C(=O)NS(=O)(=O)c5ccc(NC[C@H]6CC[C@](C)(O)CC6)c([N+](=O)[O-])c5)c(Oc5cnc6[nH]ccc6c5)c4)CC3)C2)C(c2ccccc2C(C)C)C1 (stereo partly shown) [Example 71] . 0.02 nM
